system-tested: SARS-CoV-2 RBD extracellular domain expressed with a C-terminal mouse IgG2a (SARS-COV-2 RBD-mFc) (SARS-CoV-2)
measured-endpoint: t1/2 (h)
Answer with a number only, understood to be in h.

binder="mAb10989 (antibody, V domains shown) VH: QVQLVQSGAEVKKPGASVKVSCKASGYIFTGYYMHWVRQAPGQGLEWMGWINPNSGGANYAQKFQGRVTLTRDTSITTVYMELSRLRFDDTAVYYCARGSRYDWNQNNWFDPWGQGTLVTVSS VL: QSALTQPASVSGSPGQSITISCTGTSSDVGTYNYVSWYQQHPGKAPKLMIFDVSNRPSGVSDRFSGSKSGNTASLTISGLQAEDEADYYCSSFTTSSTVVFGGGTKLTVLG" measured_number=2.07

// returns reported t1/2 for input mAb10913 (antibody, V domains shown) VH: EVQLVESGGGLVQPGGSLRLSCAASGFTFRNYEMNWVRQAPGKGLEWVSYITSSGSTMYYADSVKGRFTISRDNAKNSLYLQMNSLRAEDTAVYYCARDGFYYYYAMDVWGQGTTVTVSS VL: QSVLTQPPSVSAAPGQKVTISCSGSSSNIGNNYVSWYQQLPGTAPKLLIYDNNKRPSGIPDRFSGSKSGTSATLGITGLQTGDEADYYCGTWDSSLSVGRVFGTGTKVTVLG
1.27

Ok, now mAb10982 (antibody, V domains shown) VH: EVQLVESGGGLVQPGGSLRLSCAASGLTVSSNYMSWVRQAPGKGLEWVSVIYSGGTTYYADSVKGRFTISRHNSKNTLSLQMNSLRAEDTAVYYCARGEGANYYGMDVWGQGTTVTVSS VL: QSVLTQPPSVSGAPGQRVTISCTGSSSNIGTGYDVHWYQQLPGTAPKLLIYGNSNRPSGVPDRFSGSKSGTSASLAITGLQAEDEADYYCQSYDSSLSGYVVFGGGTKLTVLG
11.4
